System: OVCAR 3 cells
Assay: Cancer cell line proliferation assay, ATP-based cell viability (Cell Titre Glow), OVCAR 3 (CCNE1-amplified)
Settings: KYSE30 (normal CCNE1) GI50 vs. OVCAR 3 (CCNE1-amplified) GI50
observed property: Selectivity ratio KYSE30 Gl50 vs. OVCAR3 Gl50

> print(dat)
                                   compound  measured.result
1  CCN(CC(F)(F)F)C(=O)Cn1cc(C)c(Nc2ncc(C(=O)Nc3c(C)ccc(O)c3C)s2)n1 [BAA-502]     Y (>20 fold)
2  COCC1(N(C)C(=O)Cn2cc(C)c(Nc3ncc(C(=O)Nc4c(C)ccc(O)c4C)s3)n2)CC1 [BAA-607]     Y (>20 fold)
3  Cc1cn(-c2ccc(Cl)cn2)nc1Nc1ncc(C(=O)Nc2c(C)ccc(O)c2C)s1 [BAA-376]     Y (>20 fold)

---

Molecular target: Human PKMYT1 (Homo sapiens, UniProt Q99640)
Construct: Human PKMYT1 75-362 was cloned as a TEV cleavable 6xHis fusion; 6xHis (TEV cleavable) (cleaved yes); made in house; host or cells: bacterial cells
Sequence (Q99640 75-362): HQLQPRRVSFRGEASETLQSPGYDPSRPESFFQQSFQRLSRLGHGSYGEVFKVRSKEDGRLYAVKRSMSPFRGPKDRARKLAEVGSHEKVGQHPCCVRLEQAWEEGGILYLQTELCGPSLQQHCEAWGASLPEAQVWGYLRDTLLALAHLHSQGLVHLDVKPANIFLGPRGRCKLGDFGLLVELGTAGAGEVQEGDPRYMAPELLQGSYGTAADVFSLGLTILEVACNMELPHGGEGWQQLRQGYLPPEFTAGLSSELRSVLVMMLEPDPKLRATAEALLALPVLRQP
Test: PKMYT1 biochemical ADP-Glo enzymatic assay
Conditions: PKMYT1 kinase domain 15 nM; ADP-Glo; banded values
Item-by-item account of IC50
observed property: IC50

> print(dat)
                                   compound  measured.result
1  Cc1cn(CC(=O)N2CCC(C)C2)nc1Nc1ncc(C(=O)Nc2c(C)ccc(O)c2C)s1 (centres unmarked)        < 0.05 µM
2  Cc1nc(Cl)cc(Nc2ncc(C(=O)Nc3c(C)ccc(O)c3C)s2)n1        < 0.05 µM
3  Cc1ccc(O)c(C)c1NC(=O)c1cnc(Nc2cnn(CC(=O)N3CCCC3)c2)s1     0.05 to 1 µM
4  Cc1ccc(O)c(Br)c1NC(=O)c1cnc(Nc2ccn(CC(=O)N3CCCC3)n2)s1        < 0.05 µM
5  Cc1cn(-c2cnn(CCO)c2)nc1Nc1ncc(C(=O)Nc2c(C)ccc(O)c2C)s1        < 0.05 µM
6  Cc1cc(Cl)c(O)c(C)c1NC(=O)c1cnc(Nc2ccn(C)n2)s1       1 to 11 µM
7  Cc1ccc(O)c(C)c1NC(=O)c1cnc(Nc2cc(C)n(CC(C)O)n2)s1 (centres unmarked)        < 0.05 µM
8  Cc1cn(CC(=O)N(C)CCS(C)(=O)=O)nc1Nc1ncc(C(=O)Nc2c(C)ccc(O)c2C)s1        < 0.05 µM

---

Molecular target: Human PKMYT1 (Homo sapiens, UniProt Q99640)
Construct: Human PKMYT1 75-362 was cloned as a TEV cleavable 6xHis fusion; 6xHis (TEV cleavable) (cleaved yes); made in house; host or cells: bacterial cells
Assay: PKMYT1 biochemical ADP-Glo enzymatic assay
Conditions: ADP-Glo; 15 nM PKMYT1 kinase domain, 500 µM ATP, 60 minutes at 26° C.; banded
Structures can show the parent of a compound that is named as a salt.
Item-by-item account of IC50
observed property: IC50

> print(dat)
                                    compound  measured.result
 1  Cc1ccc(O)c(C)c1NC(=O)c1cnc(Nc2ccn([C@@H]3CCN(C(=O)COc4ccccc4)C3)n2)s1 [BAA-088]     0.05 to 1 µM
 2  Cc1ccc(O)c(C)c1NC(=O)c1cnc(Nc2cc(C(F)(F)F)nc(N3CCOCC3)n2)s1 [BAA-326]     0.05 to 1 µM
 3  Cc1ccc(O)c(C)c1NC(=O)c1cnc(NCc2ccn(C)n2)s1 [BAA-348]     0.05 to 1 µM
 4  Cc1ccc(O)c(C)c1NC(=O)c1cnc(Nc2ccn([C@@H]3CCN(C(=O)CC4CCNCC4)C3)n2)s1 [BAA-107]     0.05 to 1 µM
 5  Cc1ccc(O)c(C)c1NC(=O)c1cnc(Nc2ccn(CC(=O)N3CC[C@H](O)C3)n2)s1 [BAA-162]        < 0.05 µM
 6  Cc1ccc(O)c(C)c1NC(=O)c1cnc(Nc2ccn([C@@H]3CCN(C(=O)NC4CC4)C3)n2)s1 [BAA-110]     0.05 to 1 µM
 7  Cc1ccc(O)c(C)c1NC(=O)c1cnc(Nc2ccn(CC(=O)N3CCN(C4CC4)CC3)n2)s1 [BAA-182]        < 0.05 µM
 8  Cc1ccc(O)c(C)c1NC(=O)c1cnc(Nc2ccn(CC(=O)NCCO)n2)s1 [BAA-147]        < 0.05 µM
 9  Cc1ccc(O)c(C)c1NC(=O)c1cnc(Nc2nc(C)c(Br)c(C)n2)s1 [BAA-295]     0.05 to 1 µM
10  Cc1ccc(O)c(C)c1NC(=O)c1cnc(Nc2cc(C(N)=O)n(C)n2)s1 [BAA-130]        < 0.05 µM
11  Cc1ccc(O)c(C)c1NC(=O)c1cnc(Nc2ccn(CC(=O)N3CCOCC3)n2)s1 [BAA-033]        < 0.05 µM
12  Cc1ccc(O)c(C)c1NC(=O)c1cnc(Nc2ccn([C@@H]3CCN(C(=O)C(C)(C)c4ccccc4)C3)n2)s1 [BAA-094]     0.05 to 1 µM
13  CCn1ccc(Nc2ncc(C(=O)Nc3c(C)ccc(O)c3C)s2)n1 [BAA-005]        < 0.05 µM
14  Cc1ccc(N[S+]([O-])C(C)(C)C)nc1Nc1ncc(C(=O)Nc2c(C)ccc(O)c2C)s1 (stereo not drawn) [BAA-340]        < 0.05 µM
15  Cc1ccc(O)c(C)c1NC(=O)c1cnc(Nc2ccn(CCCN3CCOCC3)n2)s1 [BAA-101]     0.05 to 1 µM
16  Cc1ccc(O)c(C)c1NC(=O)c1cnc(Nc2cc(C)n(CCC(=O)O)n2)s1 [BAA-241]     0.05 to 1 µM
17  Cc1cn(Cc2ncco2)nc1Nc1ncc(C(=O)Nc2c(C)ccc(O)c2C)s1 [BAA-366]        < 0.05 µM
18  Cc1ccc(O)c(C)c1NC(=O)c1cnc(Nc2ccn(CC(=O)N3C[C@H]4C[C@@H]3CN4)n2)s1 [BAA-223]        < 0.05 µM
19  COc1ccc(CNc2ncc(C(=O)Nc3c(C)ccc(O)c3C)s2)cc1 [BAA-352]     0.05 to 1 µM
20  Cc1ccc(O)c(C)c1NC(=O)c1cnc(Nc2nn(-c3ccccc3)cc2C#N)s1 [BAA-389]        < 0.05 µM
21  Cc1ccc(O)c(C)c1NC(=O)c1cnc(Nc2ccn(CC(C)(C)O)n2)s1 [BAA-038]        < 0.05 µM
22  Cc1ccc(O)c(C)c1NC(=O)c1cnc(N[C@H](C)c2ccccc2)s1 [BAA-354]       1 to 11 µM
23  CCCN1CC[C@@H](n2ccc(Nc3ncc(C(=O)Nc4c(C)ccc(O)c4C)s3)n2)C1 [BAA-114]     0.05 to 1 µM
24  C=CC(=O)Nc1ccc(C)c(Nc2ncc(C(=O)Nc3c(C)ccc(O)c3C)s2)n1 [BAA-341]        < 0.05 µM
25  Cc1ccc(O)c(C)c1NC(=O)c1cnc(Nc2ccn([C@@H]3CCN(C(=O)NCc4ccccc4)C3)n2)s1 [BAA-108]        < 0.05 µM
26  Cc1ccc(O)c(C)c1NC(=O)c1cnc(Nc2cccc(C(=O)NC(C(C)C)C(F)(F)F)c2)s1 (stereo not drawn) [BAA-259]     0.05 to 1 µM
27  Cc1cc(Nc2ncc(C(=O)Nc3c(C)ccc(O)c3C)s2)nc(NCCC(C)(C)C)n1 [BAA-338]        < 0.05 µM
28  Cc1ccc(N)nc1Nc1ncc(C(=O)Nc2c(C)ccc(O)c2C)s1 [BAA-337]        < 0.05 µM
29  Cc1ccc(NC(=O)c2ccc(C(F)(F)F)cc2)nc1Nc1ncc(C(=O)Nc2c(C)ccc(O)c2C)s1 [BAA-328]     0.05 to 1 µM
30  Cc1ccc(O)c(C)c1NC(=O)c1cnc(Nc2nccs2)s1 [BAA-257]        < 0.05 µM
31  Cc1ccc(O)c(C)c1NC(=O)c1cnc(Nc2ccc(Nc3ccc(F)cc3)cn2)s1 [BAA-310]     0.05 to 1 µM
32  Cc1ccc(O)c(C)c1NC(=O)c1cnc(Nc2ccn([C@@H]3CCNC3)n2)s1 [BAA-056, hydrochloride]     0.05 to 1 µM
33  Cc1ccc(O)c(C)c1NC(=O)c1cnc(Nc2ccn([C@@H]3CCN(C(=O)Cc4ccc(F)cc4)C3)n2)s1 [BAA-093]     0.05 to 1 µM
